I'd be grateful if you could share measured LC50 for these entries.
system: TK-10; assay: Cytotoxicity against human TK10 cells; type: functional

Consider the reported LC50 for these compounds:
>>> measvalue("COc1cc(/C=C/c2cc(OC)c3ccn(C)c3c2)cc2c1O[C@]1(C)CC[C@@H](O)C(C)(C)[C@H]1C2")
"> 100 µM"
>>> measvalue("COc1cc(/C=C/c2cc(O)c3cc[nH]c3c2)cc2c1O[C@]1(C)CC[C@@H](O)C(C)(C)[C@H]1C2")
"> 100 µM"
>>> measvalue("COc1cc(/C=C/c2cc(O)c3ccn(C)c3c2)cc2c1O[C@]1(C)CC[C@@H](O)C(C)(C)[C@H]1C2")
"> 100 µM"

Below: the item to evaluate.
What does the data say about its LC50? Entry: "COc1cc(/C=C/c2cc(OC)c3c(CC=C(C)C)c[nH]c3c2)cc2c1O[C@]1(C)CC[C@@H](O)C(C)(C)[C@H]1C2" 66.1 µM

----------
experiment: Cytotoxicity against human Hs578T cells; type: functional; details: Hs-578T
Mark 1 for GI50 under 50 nM, 0 if at or over.

Sample answers from the record:
>>> classassignment("CC1(C)[C@H](O)CC[C@@]2(C)Oc3c(O)cc(/C=C/c4cc(O)c5cc[nH]c5c4)cc3C[C@H]12")
1
>>> classassignment("COc1cc(/C=C/c2cc(O)c3ccn(C)c3c2)cc2c1O[C@]1(C)CC[C@@H](O)C(C)(C)[C@H]1C2")
0
>>> classassignment("COc1cc(/C=C/c2cc(OC)c3c(CC=C(C)C)c[nH]c3c2)cc2c1O[C@]1(C)CC[C@@H](O)C(C)(C)[C@H]1C2")
0
>>> classassignment("COc1cc(/C=C/c2cc(O)c3c(c2)C[C@@H]2C(C)(C)[C@H](O)CC[C@@]2(C)O3)cc2c1ccn2C")
1
>>> classassignment("COc1cc(/C=C/c2cc(O)c3cc[nH]c3c2)cc2c1O[C@]1(C)CC[C@@H](O)C(C)(C)[C@H]1C2")
0

Now, please, on to the next molecule.
I'd appreciate it if you could check whether "COc1cc(/C=C/c2cc(O)c3c(c2)C[C@@H]2C(C)(C)[C@H](O)CC[C@@]2(C)O3)cc2[nH]cc(CC=C(C)C)c12" has GI50 smaller than 50 nM. 1

----------
I'd be grateful if you could share measured GI50 for these entries.
tested on: T47D; assay: Cytotoxicity against human T47D cells; type: functional
Kindly write the number and append the unit.

>>> measvalue("COc1cc(/C=C/c2cc(O)c3c(C/C=C(\\C)CCC=C(C)C)c[nH]c3c2)cc2c1O[C@]1(C)CC[C@@H](O)C(C)(C)[C@H]1C2")
"6.92 µM"
>>> measvalue("COc1cc(/C=C/c2cc(O)c3c(c2)C[C@@H]2C(C)(C)[C@H](O)CC[C@@]2(C)O3)cc2c1ccn2C")
"7.41 µM"
>>> measvalue("COc1cc(/C=C/c2cc(OC)c3c(CC=C(C)C)c[nH]c3c2)cc2c1O[C@]1(C)CC[C@@H](O)C(C)(C)[C@H]1C2")
"1.74 µM"

Below: the item to evaluate.
What does the data say about its GI50? Entry: "COc1cc(/C=C/c2cc(O)c3c(c2)C[C@@H]2C(C)(C)[C@H](O)CC[C@@]2(C)O3)cc2[nH]cc(CC=C(C)C)c12" 8.13 µM
